Can you tell me % Relative activity (WT antibody/test antibody) for the items I'm about to list?
Target: T1, human TNFR2 on the surface of CHO-TNFR2 cells (human, UniProt P20333 23-461)
T1 construct: whole, on cells
T1 sequence (looked up): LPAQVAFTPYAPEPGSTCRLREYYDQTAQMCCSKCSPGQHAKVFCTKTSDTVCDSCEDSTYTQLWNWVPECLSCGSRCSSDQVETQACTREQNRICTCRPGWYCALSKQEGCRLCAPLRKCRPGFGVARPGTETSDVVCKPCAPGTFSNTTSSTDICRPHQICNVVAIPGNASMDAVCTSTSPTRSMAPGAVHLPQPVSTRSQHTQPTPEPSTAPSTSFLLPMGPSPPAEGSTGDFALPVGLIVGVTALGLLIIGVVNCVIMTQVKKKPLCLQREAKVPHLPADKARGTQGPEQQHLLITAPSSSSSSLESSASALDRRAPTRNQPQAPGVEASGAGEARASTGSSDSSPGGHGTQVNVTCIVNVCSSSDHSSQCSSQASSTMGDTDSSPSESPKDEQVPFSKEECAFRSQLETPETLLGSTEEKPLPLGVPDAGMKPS
Assay: competition flow cytometry on CHO-TNFR2 cells, competitor TNFα-biotin; IC50 against 224-WT
One number for each entry, in %.

Some entries whose results are on file:
224-Hu5 (antibody, V domains shown, Humanized form of #224; also called VH9 + VL9) VH: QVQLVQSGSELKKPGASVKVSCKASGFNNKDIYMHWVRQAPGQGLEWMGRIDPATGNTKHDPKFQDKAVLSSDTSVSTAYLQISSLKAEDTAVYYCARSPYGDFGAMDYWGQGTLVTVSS VL: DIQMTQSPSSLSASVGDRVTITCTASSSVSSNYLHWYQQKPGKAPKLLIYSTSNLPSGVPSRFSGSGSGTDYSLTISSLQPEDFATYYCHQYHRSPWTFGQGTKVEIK; 95
224-Hu1 (antibody, V domains shown, Humanized form of #224; also called VH8 + VL6) VH: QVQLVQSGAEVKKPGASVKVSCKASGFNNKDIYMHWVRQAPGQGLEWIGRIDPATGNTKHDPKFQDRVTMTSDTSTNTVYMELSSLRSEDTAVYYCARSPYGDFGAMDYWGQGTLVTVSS VL: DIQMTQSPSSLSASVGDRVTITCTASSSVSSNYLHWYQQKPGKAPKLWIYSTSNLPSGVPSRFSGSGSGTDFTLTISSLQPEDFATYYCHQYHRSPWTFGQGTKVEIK; 108

Assign % Relative activity (WT antibody/test antibody) to the following record: 224-Hu6 (antibody, V domains shown, Humanized form of #224; also called VH8 + VL7) VH: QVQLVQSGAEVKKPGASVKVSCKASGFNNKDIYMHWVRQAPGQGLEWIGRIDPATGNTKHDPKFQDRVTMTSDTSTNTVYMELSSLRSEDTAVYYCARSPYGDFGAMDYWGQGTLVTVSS VL: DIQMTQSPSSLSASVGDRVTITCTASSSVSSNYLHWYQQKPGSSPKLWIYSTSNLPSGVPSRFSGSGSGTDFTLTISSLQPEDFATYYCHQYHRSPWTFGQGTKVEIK
96
